Below, each entry is listed with its recorded pIC50.
test system: OCI-LY10; assay: CTG Cell Viability Assay - OCI-LY10; format: cell-based, human; details: Homo sapiens, OCI-Ly10, 96 h, OCI-LY10, 4 days; read-out: CTG Cell Viability Assay - OCI-LY10: Average external-IC50
pIC50: −log10 of the molar value.

# compound, pIC50
data = [
    ("CC[C@H]1C(COc2ncc(C#CC3CCC(CN(C)CCCOCCCc4cccc5c4n(C)c(=O)n5C4CCC(=O)NC4=O)CC3)c3cc(C(N)=O)c(OC)cc23)NC(=O)[C@H]1F (some centres unmarked)", "< 6.00"),
    ("Cn1c(=O)n(C2CCC(=O)NC2=O)c2ccc(CCCOCCC(=O)N3CCN([C@H]4CC[C@H](Nc5ncnc6[nH]cc(C7CCOCC7)c56)CC4)CC3)cc21 (some centres unmarked)", "6.00 to 6.30"),
    ("C=C(C)c1nn([C@H]2CC[C@H](C(=O)N(C)CCCOCCCc3cccc4c3n(C)c(=O)n4C3CCC(=O)NC3=O)CC2)cc1NC(=O)c1coc(-c2ccnc(NCC3CC3)c2)n1 (some centres unmarked)", "6.30 to 7.00"),
    ("Cn1c(=O)n(C2CCC(=O)NC2=O)c2ccc(CN3CCC(CCCN4CCC(n5cc(NC(=O)c6coc(-c7ccnc(NCC8CC8)c7)n6)c(C(F)F)n5)CC4)CC3)cc21 (centres unmarked)", "6.30 to 7.00"),
    ("Cn1c(=O)n(C2CCC(=O)NC2=O)c2cccc(CCCOC3CN(C[C@H]4CC[C@H](n5cc(NC(=O)c6coc(-c7ccnc(NCC8CC8)c7)n6)c(C(F)F)n5)CC4)C3)c21 (some centres unmarked)", "< 6.00"),
]
